Attribution: paper PMC10447463

Experiment: Aggregate analysis by widefield fluorescence microscopy
Assay type: physicochemical
Details: Fig S8 panels A, C
Please mark criterion met if the recorded Median Area in 3 * (1330 µm *1330 µm) is equal to or greater than 20, and criterion not met if it falls below.

[[record]]
substance = "CHLHLQL [CN9]"
assigned_category = "criterion met"

[[record]]
substance = "CKIKIQI [MG3b]"
assigned_category = "criterion not met"

[[record]]
substance = "CKFKFQFNM [BL3]"
assigned_category = "criterion not met"

[[record]]
substance = "KIKQIINMWQ [JG2]"
assigned_category = "criterion met"

[[record]]
substance = "HHHHKIKIKIKIWWWW [TM4]"
assigned_category = "criterion met"

[[record]]
substance = "CKIKQIINMWQ [MG5a / CK17]"
assigned_category = "criterion met"

